Taken from the RNAGym collection of RNA variant scans (doi:10.1073/pnas.2313332121).

B1: TPR 5TU (parent)
chain: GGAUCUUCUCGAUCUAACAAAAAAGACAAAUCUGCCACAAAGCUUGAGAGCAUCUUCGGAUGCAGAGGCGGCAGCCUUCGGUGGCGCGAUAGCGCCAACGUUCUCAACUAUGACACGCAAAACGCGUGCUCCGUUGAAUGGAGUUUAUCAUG

variants of: B1; experiment: polymerase ribozyme fitness, log enrichment relative to wild type (log ratio); higher = more active; in vitro selection for triplet polymerase activity
Fewer inactive variants are shown than the library holds.
Kindly supply the reported polymerase ribozyme fitness (log ratio) values for the records listed here.
Provide a numeric answer; units are not to be included.

[in] For the variant shown here, U6G A40U U56A C93U A106C , give the reported polymerase ribozyme fitness (log ratio).
[out] -1.92

[in] Bench note: what polymerase ribozyme fitness (log ratio) did C27U C51G show?
[out] -3.3

[in] Sample A41C C57G G136U — what was its polymerase ribozyme fitness (log ratio)?
[out] -3.64

[in] For the variant A20U G25C G141A , what polymerase ribozyme fitness (log ratio) is on record?
[out] -4.03

[in] Tell me the measured polymerase ribozyme fitness (log ratio) of U6C C54G C93A C116G G141A , please.
[out] -4.17

[in] Please report the recorded polymerase ribozyme fitness (log ratio) for U55G C96A C105U .
[out] -0.496

[in] Returns the measured polymerase ribozyme fitness (log ratio) for the input variant. Input: G84A G136A U148C
[out] -1.66

[in] For the variant U6C A47G G59C G92U C99A C118G , what polymerase ribozyme fitness (log ratio) is on record?
[out] -3.32
